- Assay Target: human IL-21R expressed on cells (human, UniProt Q9HBE5 20-538)
- Sequence (Q9HBE5 20-538 limits assumed): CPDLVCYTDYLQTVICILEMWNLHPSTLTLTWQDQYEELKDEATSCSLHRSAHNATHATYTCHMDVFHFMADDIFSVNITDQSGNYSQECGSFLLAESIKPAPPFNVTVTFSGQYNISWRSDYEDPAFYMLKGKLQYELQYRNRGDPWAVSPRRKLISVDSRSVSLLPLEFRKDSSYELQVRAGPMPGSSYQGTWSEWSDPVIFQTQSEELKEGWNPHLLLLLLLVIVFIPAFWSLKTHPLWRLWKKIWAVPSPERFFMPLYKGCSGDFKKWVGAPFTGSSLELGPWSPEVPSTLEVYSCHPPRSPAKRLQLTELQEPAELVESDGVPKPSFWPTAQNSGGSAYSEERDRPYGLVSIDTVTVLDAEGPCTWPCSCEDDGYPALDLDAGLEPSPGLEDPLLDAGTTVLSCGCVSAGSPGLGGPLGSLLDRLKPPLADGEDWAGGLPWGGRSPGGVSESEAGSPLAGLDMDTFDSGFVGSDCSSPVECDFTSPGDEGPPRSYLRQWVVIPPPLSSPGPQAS
- Assay Info: cell-based or functional assay
Measurement Type: Human IL-21R-TF1 Proliferation IC50 (nM)
Answer with a number only, understood to be in nM.

q: Identify measured Human IL-21R-TF1 Proliferation IC50 corresponding to AbE (antibody, human IgG1, V domains shown, Full-length human IgG1 / human lambda, transient, conditioned medium; Framework limits derived; also called VHP/VL14) VH: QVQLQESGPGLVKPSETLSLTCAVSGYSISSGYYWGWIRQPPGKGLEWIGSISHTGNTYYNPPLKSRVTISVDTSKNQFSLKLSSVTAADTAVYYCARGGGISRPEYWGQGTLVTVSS VL: SSELTQDPAVSVALGQTVRITCQGDSLRTYYASWYQQKPGQAPVLVIYGKHKRPSGIPDRFSGSSSGNTASLTITGAQAEDEADYYCMARSRKGNPHVLFGGGTQLTVL
a: 2.28

q: Identify measured Human IL-21R-TF1 Proliferation IC50 corresponding to AbK (antibody, human IgG1, V domains shown, Full-length human IgG1 / human lambda, transient, conditioned medium; Framework limits derived; also called VH3/VL3) VH: QVQLQESGPGLVKPSETLSLTCAVSGYSISSGYYWGWIRQPPGKGLEWIGSISHTGNTYYNPPLKSRVTISVDTSKNQFSLKLSSVTAADTAVYYCARFMGFGRPEYWGQGTLVTVSS VL: SSELTQDPAVSVALGQTVRITCQGDSLRTYYASWYQQKPGQAPVLVIYGKHKRPSGIPDRFSGSSSGNTASLTITGAQAEDEADYYCVSRAVVGNPHVLFGGGTQLTVL
a: 4

q: Identify measured Human IL-21R-TF1 Proliferation IC50 corresponding to AbD (antibody, human IgG1, V domains shown, Full-length human IgG1 / human lambda, transient, conditioned medium; Framework limits derived; also called VHP/VL13) VH: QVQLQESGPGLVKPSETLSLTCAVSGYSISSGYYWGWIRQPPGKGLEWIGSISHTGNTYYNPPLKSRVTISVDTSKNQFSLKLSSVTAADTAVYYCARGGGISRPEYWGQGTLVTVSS VL: SSELTQDPAVSVALGQTVRITCQGDSLRTYYASWYQQKPGQAPVLVIYGKHKRPSGIPDRFSGSSSGNTASLTITGAQAEDEADYYCVTRNRYGNPHVLFGGGTQLTVL
a: 2.67

Taken from patent US20090298167A1.
